Here, each record is paired with measured EC50 (read off the curve) data.
Molecular target: T1, biotinylated recombinant his-tagged MrkA, mixture of monomeric and oligomeric MrkA (Klebsiella pneumoniae, UniProt P12267 23-202, biotin-labeled (Pierce kit; sites not stated))
T1 construct: also called biotinylated-MrkA; a mixture of monomeric and multimeric MrkA; not shown: his tag
T1 chain: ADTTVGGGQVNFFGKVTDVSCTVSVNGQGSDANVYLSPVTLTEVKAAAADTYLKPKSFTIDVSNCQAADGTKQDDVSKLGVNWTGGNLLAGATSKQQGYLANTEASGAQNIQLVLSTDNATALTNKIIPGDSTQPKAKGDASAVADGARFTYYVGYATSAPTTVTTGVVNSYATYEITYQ
Assay: ELISA, biotinylated MrkA captured by streptavidin (title: anti-MrkA IgG binding to bio-MrkA)

Solved entries (count: 3):
>>> assay_value("anti-MrkA clone 4 (IgG1) (antibody, V domains shown, also called St2_C4; IgG clone 4) VH: QLQLQESGPGLVKPSGTLSLTCAVSGDSIDNANWWSWVRQTPGKGLEWIGEIYHSGTTYYNPSLKSRVTISIDNSKNQFSLALTSVTAADTAVYYCARDRDITSRGTFDVWGRGTMVTVSS VL: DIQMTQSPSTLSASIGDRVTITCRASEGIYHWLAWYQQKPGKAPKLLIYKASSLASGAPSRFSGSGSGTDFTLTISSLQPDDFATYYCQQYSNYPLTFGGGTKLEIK")
"~0.1 µg/mL"
>>> assay_value("anti-MrkA clone 5 (IgG1) (antibody, V domains shown, also called St3_C5; IgG clone 5) VH: QVQLVQSGAEVKKPGASLKVSCKASGYTFTAYYMHWVRQAPGHGLEWMGWINPSSGGTNSAQKFQGRVTMTRDTSINTAYMELSRLTSDDTAVYYCARGTIGAAGNYWGQGTLVTVSS VL: QSVLTQPPSASGTPGQRVTISCSGSRPNIGGNTVNWYQQLPGAAPKLLIYSNSQRPSGVPDRFSGSKYGTSASLAISGLQSDDEADYYCAAWDDSLTGPVFGGGTKLTIL")
"~0.2 µg/mL"
>>> assay_value("anti-MrkA clone 6 (IgG1) (antibody, V domains shown, also called St4_C6; IgG clone 6) VH: QVQLVQSGAEVRKPGASVTLSCRTSGYTFTSYAVHWVRQAPGQGLEWMGGVNGGNGNTRFSQKFQDRLMIVRDRSANTASMELRSLTSEDTAVYYCARADDCSGVGCHPWFDPWGQGTLVTVSS VL: SVILTQPPSVSVSPGQTANITCSGDKLGDKYTSWYLQKPGQSPVLLIFQDTKRPSDIPERFSGSNSGNTATLTISGTQAVDEADYYCQAWDSDSGTATFGGGTKLTVL")
"~0.01 µg/mL"

Continue with the next binder.
GET /value?item= anti-MrkA clone 1 (IgG1) (antibody, V domains shown, also called St1_C1; IgG clone 1) VH: QVQLVQSGAEVRKPGASVTVFCRTSGYIFTSYAVHWVRQAPGQGLEWMGGINGGNGNTRISQRFQDRLMITRDRSANTASMELRSLTSEDTAIYYCARADDCSGVGCHPWFDPWGRGTLVTVSS VL: QSVLTQPPSVSVSPGHTASITCSGDKLGDKYVSWYQQKSGQSPVLVMYKDTKRPSGIPERFSGSNSGNTATLAISGTQAVDEADYFCQAWDRSIMIFGGGTKVTVL &field=EC50 (read off the curve) returns ~0.01 µg/mL
